measured target: HLA-DR (DRA1*01:01 / DRB1*07:01), soluble knob-into-hole Fc heterodimer (human)
test summary: ELISA
measured property: pKi
# pKi = -log10(concentration in molar units)

Enquiry: For the binder KPVSKMRMATPLLMQALPM [human CLIP peptide, unlabelled competitor] , give its measured pKi value.
Return: 8.16
